Provenance of the data: patent US7807690B2

pIC50: −log10 of the molar value. Structures can show the parent of a compound that is named as a salt.
# pIC50 per entry for human clotting factor VIIa (Homo sapiens)
ENDPOINT_LABEL: pIC50

Solved entries (count: 3):
COc1cc(OC)c(F)c(C(Nc2ccc3c(c2)CNC3=N)c2nn(-c3ccccc3[N+](=O)[O-])c(=O)[nH]2)c1 (centres unmarked) [Example 14, trifluoroacetate] | 7.89
CCc1cc(OCCO)c(F)c(C(Nc2ccc3c(c2)CNC3=N)c2nn(-c3ncccn3)c(=O)[nH]2)c1 (centres unmarked) | 7.85
CCc1cc(OCCN(C)C)c(F)c(C(Nc2ccc3c(c2)CNC3=N)c2nn(-c3ccccc3N)c(=O)[nH]2)c1 (centres unmarked) [Example 8, bistrifluoroacetate] | 7.82

(I) CCc1cc(OCCO)c(F)c(C(Nc2ccc3c(c2)CNC3=N)c2nn(-c3ccsc3C(=O)O)c(=O)[nH]2)c1 (single isomer, unassigned)
(II) COc1cc(F)c(C(Nc2ccc3c(c2)CNC3=N)c2nn(-c3ccccc3N)c(=O)[nH]2)cc1OC (single isomer, unassigned) [Example 10, acetate]
// query Could you tell me which of these two has the smaller pIC50 figure? First: I Second: II Your choice should be expressed through its label.
// result II
